Quick list: GI50 per entry.
test system: IGROV-1; test: NCI tumour cell line growth inhibition, 48 h
Calls of active or inactive are those of the source. No stated cut-off is given here; in the data, active = GI50 up to about 1.1 µM and inactive = higher.

// compound CCOP(=O)(CCCC(O)CNc1nc(N)nc(Cl)c1/N=N/c1ccc(Cl)cc1)OCC (stereo not given) , assay IGROV-1, GI50 value: 11.9 µM (inactive)

// compound O=c1c2cc(I)ccc2nc(-c2cccs2)n1-c1ccc(O)cc1 , assay IGROV-1, GI50 value: 13.5 µM (inactive)

// compound O=C1NC(=O)/C(=C/c2ccc(S(=O)(=O)N/N=C/c3ccccc3)cc2)N1 , assay IGROV-1, GI50 value: > 100 µM (inactive)

// compound O=C(NCCCCCCCCCCCCNC(=O)Nc1cccc2ccccc12)Nc1cccc2ccccc12 , assay IGROV-1, GI50 value: 18.4 µM (inactive)
